# Test system: NCI-H82 cell
# assayExplanation: Cell viability (Promega CellTiter-Glo) of NCI-H82 cell
# Assay type: cell-based
# runParameters: Homo sapiens; NCI-H82 cell, Table 1; read-out: IC50
# From the text: (§1) Cell viability was detected using the Promega CellTiter-Glo kit, the kit reflected cell viability by directly measuring intracellular ATP content. […] as §1, §1
Label YES when IC50 < 600 nM; otherwise NO.

Completed entries (count: 4):
[
  {
    "molecule": "O=C(C[n+]1ccc2c(ccn2Cc2ccccc2)c1)c1cccc([N+](=O)[O-])c1 [AB24888]",
    "assignedLabel": "NO"
  },
  {
    "molecule": "Cc1ccc2c(c1)C(=O)C([n+]1ccc3c(ccn3C(C)c3ccccc3)c1)CC2 (stereo not drawn) [AB27163]",
    "assignedLabel": "YES"
  },
  {
    "molecule": "CCn1ccc2c[n+](C3CCc4ccc(OC(F)(F)F)cc4C3=O)ccc21 (stereo not drawn) [AB27155]",
    "assignedLabel": "NO"
  },
  {
    "molecule": "Cc1ccc(C(=O)C[n+]2ccc3c(ccn3Cc3ccccc3)c2)cc1 [AB24887]",
    "assignedLabel": "YES"
  }
]

Please find the next molecule below.
Query: Please determine if O=C1c2cc(OC(F)(F)F)ccc2CCC1[n+]1ccc2c(ccn2C2CC2)c1 (stereo not drawn) [AB27158] is below 600 nM in terms of IC50.
Response: YES

----------
# System: NCI-H82 cell
# assayExplanation: Cell viability (Promega CellTiter-Glo) of NCI-H82 cell
# Format: cell-based
# runParameters: Homo sapiens; NCI-H82 cell, Table 1; read-out: IC50
parameter: pIC50
Give bare numbers, as −log10 of the molar value.

[
  {
    "compound": "Cc1ccc2c(c1)CCC([n+]1ccc(NCc3ccccc3)nc1)C2=O (stereo not shown) [AB24961]",
    "tgt": "NCI-H82 cell",
    "pIC50": 6.27
  }
]

Hi! Can you tell me pIC50 for each of these compounds?
1. O=C1c2ccc(F)cc2CCC1[n+]1ccc(NCc2ccccc2)cc1 (stereo not shown) [AB24949]
2. O=C(C[n+]1ccc(NCc2ccccc2)cc1)c1ccc(Cl)nc1 [AB24817]
3. O=C1c2ccc(Cl)cc2CCC1[n+]1ccc(NCc2ccccc2)cc1 (stereo not shown) [AB24841A]
4. Cc1ccc(C(=O)C[n+]2ccc3c(Cc4ccccc4)c[nH]c3c2)cc1 [AB24859]
5. CCn1ccc2c[n+](C3CCc4ccc(C(F)(F)F)cc4C3=O)ccc21 (stereo not shown) [AB27149]
6. O=C(C[n+]1ccc(NCc2ccccc2)cc1)c1ccc(Br)cc1 [AB24808A]

Response:
1: 6.17; 2: 5.34; 3: 6.23; 4: 5.64; 5: 5.70; 6: 6.21

Hi! Can you tell me pIC50 for each of these compounds?
1. Cc1ccc(C(=O)C[n+]2ccc(NCc3ccccc3)nc2)cc1 [AB24846]
2. Cc1cnc(C(=O)C[n+]2ccc(NCc3ccccc3)cc2)cn1 [AB24821]
3. O=C(C[n+]1ccc2c(-c3ccccc3)c[nH]c2c1)c1cccc([N+](=O)[O-])c1 [AB24878]
4. O=C1c2cc(Cl)ccc2CCC1[n+]1ccc2c(c1)CCC(c1ccccc1)N2 (stereo not shown) [AB27130]

Response:
1: 6.29; 2: 5.14; 3: 5.45; 4: 6.11

Hi! Can you tell me pIC50 for each of these compounds?
1. O=C(Nc1ccc([N+](=O)[O-])cc1)c1ccc(NCc2ccccc2)cc1 [AB24883]
2. Cc1ccc(C(=O)C[n+]2ccc3c(c2)ncn3Cc2ccccc2)cc1 [AB24885]
3. COc1ccc(C(=O)C[n+]2ccc(NCc3ccccc3)nc2)cc1 [AB24963]
4. O=C(C[n+]1ccc2c(c1)CC(c1ccccc1)N2)c1ccc(OC(F)(F)F)cc1 (stereo not shown) [AB24999]

Response:
[5.20, 5.50, 6.48, 5.89]

Hi! Can you tell me pIC50 for each of these compounds?
1. Cc1ccc(C(=O)C[n+]2ccc3c(ccn3-c3ccccc3)c2)cc1 [AB24895]
2. O=C(C[n+]1ccc2c(c1)CCCC(c1ccccc1)N2)c1ccc(Cl)cc1 (stereo not shown) [AB24839]
3. O=C1c2ccc(C(F)(F)F)cc2CCC1[n+]1ccc2c(ccn2Cc2ccccc2)c1 (stereo not shown) [AB24996]
4. Cc1ccc(C(=O)C[n+]2ccc3c(Cc4cccc(Cl)c4)c[nH]c3c2)cc1 [AB24854]

Response:
1. 5.68
2. 6.00
3. 5.87
4. 5.80

----------
# assayExplanation: Stability in human liver microsome
# Assay type: in vitro ADME
# runParameters: liver microsomes, pH 7.4, 1.5 μM drug solution, NADPH, 37° C., read-out: Human T1/2
Label Y when half-life at 1 µM < 8 h; otherwise N.

Completed entries (count: 4):
[
  {
    "molecule": "O=C1c2ccc(Cl)cc2CCC1[n+]1ccc(NCc2ccccc2)cc1 (centres unmarked) [AB24841A]",
    "assignedLabel": "N"
  },
  {
    "molecule": "O=C(C[n+]1ccc(NCc2ccccc2)cc1)c1cccc([N+](=O)[O-])c1",
    "assignedLabel": "Y"
  },
  {
    "molecule": "CC(c1ccccc1)[n+]1ccc2c(ccn2C2CCc3ccc(Cl)cc3C2=O)c1 (centres unmarked)",
    "assignedLabel": "Y"
  },
  {
    "molecule": "O=C(C[n+]1ccc(NCc2ccccc2)cc1)c1ccc(OC(F)(F)F)cc1 [AB24810A]",
    "assignedLabel": "N"
  }
]

Query: Please determine if O=C1c2cc(C(F)(F)F)ccc2CCC1[n+]1ccc(NCc2ccccc2)cc1 (centres unmarked) is below 8 h in terms of half-life at 1 µM.
Response: N

Query: Please determine if Cc1cn(Cc2ccccc2)c2cc[n+](C3CCc4ccc(Cl)cc4C3=O)cc12 (centres unmarked) is below 8 h in terms of half-life at 1 µM.
Response: N

Query: Please determine if O=C1c2cc(C(F)(F)F)ccc2CCC1[n+]1ccc2c(ccn2Cc2ccccc2)c1 (centres unmarked) is below 8 h in terms of half-life at 1 µM.
Response: N

Query: Please determine if O=C(C[n+]1ccc(NCc2ccccc2)cc1)c1cccc(Cl)c1 [AB24805A] is below 8 h in terms of half-life at 1 µM.
Response: Y

Query: Please determine if O=C1c2ccc(Cl)cc2CC1[n+]1ccc(NCc2ccccc2)cc1 (centres unmarked) [AB24840A] is below 8 h in terms of half-life at 1 µM.
Response: Y

Query: Please determine if O=C1c2cc(C(F)(F)F)ccc2CCC1[n+]1ccc2c(c1)CCC(c1ccccc1)N2 (centres unmarked) is below 8 h in terms of half-life at 1 µM.
Response: Y

----------
# System: NCI-H82 cell
# assayExplanation: Cell viability (Promega CellTiter-Glo) of NCI-H82 cell
# Assay type: cell-based
# runParameters: Homo sapiens; NCI-H82 cell, Table 1; read-out: IC50
Categories are defined by ranges of IC50, namely one = under 800 nM, two = from 800 nM up to 2000 nM, three = 2000 nM and over

[
  {
    "compound": "Cc1cn(Cc2ccccc2)c2cc[n+](C3CCc4ccc(Cl)cc4C3=O)cc12 (stereo not shown)",
    "tgt": "NCI-H82 cell",
    "assignedLabel": "one"
  }
]

Query: Form field 'band' for CC(c1ccccc1)[n+]1ccc2c(ccn2C2CCc3ccc(Cl)cc3C2=O)c1 (stereo not shown)
Response: one

Query: Form field 'band' for CCCn1ccc2c[n+](C3CCc4ccc(OC(F)(F)F)cc4C3=O)ccc21 (stereo not shown)
Response: one

Query: Form field 'band' for `O=C(C[n+]1ccc(NCc2ccccc2)nc1)c1cccc(OC(F)(F)F)c1`
Response: three

Query: Form field 'band' for O=C1c2cc(C(F)(F)F)ccc2CCC1[n+]1ccc(NCc2ccccc2)cc1 (stereo not shown)
Response: one

----------
# Test system: NCI-H82 cell
# assayExplanation: Cell viability (Promega CellTiter-Glo) of NCI-H82 cell
# Format: cell-based
# runParameters: Homo sapiens; NCI-H82 cell, Table 1; read-out: IC50
parameter: log10(IC50) (log10 of the value in nM)
Values are log10 of IC50 in nM.

Previously resolved entries follow.
[
  {
    "compound": "O=C(C[n+]1ccc(NCc2ccccc2)cc1)c1ccccc1 [AB24807A]",
    "testValue": 2.73
  },
  {
    "compound": "CC(c1ccccc1)n1ccc2c[n+](C3CCc4ccc(Cl)cc4C3=O)ccc21 (stereo not shown)",
    "testValue": 2.61
  },
  {
    "compound": "O=C1c2cc(F)ccc2CCC1[n+]1ccc(NCc2ccccc2)cc1 (stereo not shown)",
    "testValue": 2.00
  },
  {
    "compound": "O=C1c2cc(C(F)(F)F)ccc2CCC1[n+]1ccc2c(c1)CCC(c1ccccc1)N2 (stereo not shown)",
    "testValue": 2.64
  },
  {
    "compound": "Cc1ccc(Cc2c[nH]c3c[n+](CC(=O)c4ccc(C(F)(F)F)cc4)ccc23)cc1",
    "testValue": 3.24
  },
  {
    "compound": "O=C1c2cc(OC(F)(F)F)ccc2CCC1[n+]1ccc(NCc2ccccc2)cc1 (stereo not shown)",
    "testValue": 2.41
  }
]

Hi! Can you tell me log10(IC50) for each of these compounds?
1. CC(c1ccccc1)n1ccc2c[n+](C3CCc4ccc(OC(F)(F)F)cc4C3=O)ccc21 (stereo not shown)
2. Cc1ccc2c(c1)C(=O)C([n+]1ccc(NCc3ccccc3)cc1)CC2 (stereo not shown)
3. Cc1ccc2c(c1)C(=O)C([n+]1ccc3c(c1)CCC(c1ccccc1)N3)CC2 (stereo not shown)
4. Cc1ccc(C(=O)C[n+]2ccc(N(C)Cc3ccccc3)cc2)cc1
5. O=C1c2ccc(OC(F)(F)F)cc2CCC1[n+]1ccc(NCc2ccccc2)cc1 (stereo not shown)
6. Cc1cccc2c1C(=O)C([n+]1ccc(NCc3ccccc3)cc1)C2 (stereo not shown)
7. CC(C)c1c[nH]c2c[n+](CC(=O)c3cccc(Cl)c3)ccc12

Response:
1. 2.38
2. 2.58
3. 2.53
4. 3.45
5. 2.93
6. 3.51
7. 3.60

Values from patent US20240124445A1
